- system tested: T1, EGF domain 3 and 4 of recombinant human Protein S (human, UniProt P07225 201-286, limits assumed)
- T1 construct: domain: EGF domain 3 and 4; also called hEGF3-4
- T1 sequence (looked up): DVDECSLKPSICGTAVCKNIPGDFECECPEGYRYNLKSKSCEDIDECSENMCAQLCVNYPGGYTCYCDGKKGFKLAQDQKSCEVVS
- method: ELISA, calcium-free TBS;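 also: binding of mouse antibodies detected by ELISA with an HRP-conjugated goat anti-mouse IgG secondary and TMB substrate development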
experimental endpoint: binding result

[[record]]
binder = "M-hProtS-2F188A1 monoclonal antibody (antibody, mouse IgG1, V domains shown, Purified from hybridoma supernatant; mouse IgG1, kappa) VH: QVQLQQPGAELVRPGTSVKLSCKASGYTVTSYWMNWIKQRPEQGLEWIGRIDPNDSETLYNQKFKDKVILTVDKSSSTVYIQLSSLTSEDSAVYYCARWAGSGYAMDYWGQGTSVTVSS VL: QIVLTQSPALLSASPGEKVTMTCSASSSVSYMYWYQQKPGSSPKPWIYVTSNLASGVPARFSGSGSGTSYSLTISSMEAEDAATYYCHQWSSDPYTFGGGTKLEIRR"
experimental_endpoint = "binding result"
value = "no binding"

[[record]]
binder = "M-hProtS-6F138A3 monoclonal antibody (antibody, V domains shown, Mouse IgG1, kappa; also called 6F138A1/A3) VH: QVHLKESGPGLVAPSQNLSITCTVSGFSLTGYGVSWVRQPPGKGLEWLGMIWGDGTTDYNSTLKSRLSISKDNSKSQVFLKMNSLQIDDTARYYCARDPGAMDYWGQGTSVTVSS VL: QIVLTQSPAIMSASPGEKVTITCSATSSVTYMHWFQQKPGTSPKLWIFSTSNLASGVPPRFSGSGSGTSYSLTISRMEAEDAATYYCQQRSSYPPTFGGGTKLEIKR"
experimental_endpoint = "binding result"
value = "no binding"

